Source of measurements: patent US20140221613A1

The following binders are listed with their measured Ratio of the remaining amount of antibody by SPR sensor gram at pH 4.0 values.
# system_tested: human immunoglobulin IgG
readout: Ratio of the remaining amount of antibody by SPR sensor gram at pH 4.0 (%)

binder	observed
OXADac-PG14 (designed binder) MGAGTPVTAPLAGTIWKVLASEGQTVAAGEVLLILEAMKMETEIRAAQAGTVRGIAVKAGDAVAVGDTLMTLAGSGSDLYDDDDKGIITSLYKKAGSAAAPFTDTYKLILNGKTLKGETTTEAVDAATAEKVFKQYANEHGVDGHWTYDPETKTFTVTE	71
OXADac-PG20 (designed binder) MGAGTPVTAPLAGTIWKVLASEGQTVAAGEVLLILEAMKMETEIRAAQAGTVRGIAVKAGDAVAVGDTLMTLAGSGSDLYDDDDKGIITSLYKKAGSAAAPFTDTYKLILNGKTLKGETTTEAVHAATAEKVFKHYANEHGVHGHWTYDPETKTFTVTE	58
OXADac-PG16 (designed binder) MGAGTPVTAPLAGTIWKVLASEGQTVAAGEVLLILEAMKMETEIRAAQAGTVRGIAVKAGDAVAVGDTLMTLAGSGSDLYDDDDKGIITSLYKKAGSAAAPFTDTYKLILNGKTLKGETITEAVDAATAEKVFKQYANEHGVDGEWTYDPETKTFTVTE	94
